molecules and their reported melting point

molecule: Nc1nc(N)nc(C=Cc2ccc(C=C3C(=O)NC(=O)NC3=O)cc2)n1
melting point: > 350 °C
--
molecule: C#CCNC(=O)N1CC(c2ccc(C(C)(C)C)cc2)C1
melting point: 141 °C
--
molecule: O=C(c1ccccc1F)c1ccc(O)c(Cl)c1Cl
melting point: 128 to 131 °C
--
molecule: CCCC(CCC)C(=O)NC(C)C(=O)OC (stereo not given)
melting point: 72 to 73 °C
--
molecule: Cc1cn(C2CCN(c3c(F)cc4c(=O)c(C(=O)O)cn5c4c3OCC5C)C2)nn1 (single isomer, unassigned; (-))
melting point: 241 to 242 °C
--
molecule: O=C1c2ccncc2C(=O)c2c(F)ccc(O)c21
melting point: 189 to 192 °C
--
molecule: COc1ccc(O)c(C(=O)Nc2ccccc2C(=O)NCCCC(=O)O)c1
melting point: 191 to 193 °C
--
molecule: CCOC(=O)C1=C(C)NC(N)=C(C(=O)OCC)C1c1ccccc1C#N (stereo not given)
melting point: 208 °C
--
molecule: O=C(O)Cn1cc(C2(O)CCCC2)nn1
melting point: 124 to 126 °C
--
molecule: O=C(Nc1cc(Cl)ccc1S(=O)(=O)c1ccc(Cl)cc1)N[C@@H](Cc1ccc(NC(=O)c2c(Cl)cccc2Cl)cc1)C(=O)O
melting point: 239 °C

###

molecule: O=C(O)CN1C(=O)CC1SCc1ccccc1 (stereo unspecified)
melting point: 110 °C
--
molecule: Nc1ccc(F)c(-c2ccc3ncccc3c2)c1F
melting point: 178 to 179 °C
--
molecule: Oc1cc(O)cc(OCc2ccccc2)c1
melting point: 85 to 86 °C
--
molecule: CC(=O)c1cc(Cl)sc1S(N)(=O)=O
melting point: 178 to 179 °C
--
molecule: CC(C)NC(=O)NCCCOc1cc(CN2CCCCC2)ccn1
melting point: 58 to 60 °C
--
molecule: COc1ccccc1-c1nc(-c2ccccc2)c2ncc(Cl)cc2n1
melting point: 116 to 117 °C

###

compounds and their reported melting point
measured attribute: melting point

compound: C#Cc1nc(NOC)c2ncn([C@@H]3O[C@H](CO)[C@@H](O)[C@H]3O)c2n1
measured attribute: melting point
value reported: 165 to 167 °C

compound: CCc1cc(SCCc2cccc3cn(-c4ccc(C(F)(F)F)cc4)nc23)ccc1OCC(=O)O
measured attribute: melting point
value reported: 115 to 117 °C

compound: CCCCCCCCCCc1cnc(-c2ccc3c(c2)C(=O)C(CCCCCCCC)C3)nc1 (stereo not given)
measured attribute: melting point
value reported: 83 °C

compound: CCc1cnc(C2=NC(C)(C(C)C)C(=O)N2)c(C(=O)NCCCC(=O)OC)c1 (stereo not given)
measured attribute: melting point
value reported: 132 to 134 °C

compound: Cn1cc(C2CCC(=O)CC2)c2cc(C#N)ccc21
measured attribute: melting point
value reported: 150 to 152 °C

compound: O=C(Nc1nc(-c2ccco2)c(C(=O)C2CCOCC2)s1)c1ccccc1OC(F)(F)F
measured attribute: melting point
value reported: 131 to 134 °C

compound: COc1cc(C(=O)C=Cc2cc(O)c(O)c([N+](=O)[O-])c2)cc(OC)c1OC
measured attribute: melting point
value reported: 213 to 216 °C

compound: CCNc1nc(Nc2ccccc2)ncc1C(C)=CC(=O)OCC
measured attribute: melting point
value reported: 148 to 150 °C

compound: CN(NC=C1CSc2ccc(Cl)cc2C1=O)C(=O)OC(C)(C)C
measured attribute: melting point
value reported: 121 to 124 °C

compound: O=C1CC2(CCCC2)c2ccc(O)cc21
measured attribute: melting point
value reported: 145 °C

Values from a melting point compilation (Tetko et al.; mined from patent text by program, amines drawn as free bases though some values may be those of a salt)
